- Target under test: T1, human GIP receptor (human, UniProt P48546 22-466)
- T1 sequence (looked up): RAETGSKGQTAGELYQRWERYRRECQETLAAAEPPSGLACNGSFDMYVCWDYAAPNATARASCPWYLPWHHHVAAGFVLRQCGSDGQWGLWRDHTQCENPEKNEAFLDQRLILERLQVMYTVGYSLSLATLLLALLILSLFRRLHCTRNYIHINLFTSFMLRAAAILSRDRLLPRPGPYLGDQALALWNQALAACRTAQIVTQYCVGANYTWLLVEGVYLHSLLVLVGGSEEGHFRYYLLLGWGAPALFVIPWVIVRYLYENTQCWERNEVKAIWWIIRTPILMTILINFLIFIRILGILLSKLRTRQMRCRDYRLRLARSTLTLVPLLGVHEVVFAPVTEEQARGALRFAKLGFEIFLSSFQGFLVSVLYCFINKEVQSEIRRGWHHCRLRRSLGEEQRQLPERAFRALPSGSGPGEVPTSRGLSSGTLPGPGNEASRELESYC
- Assay remarks: cell-based or functional assay
*1 amine or outer side, *2 acyl side, *3 side chain or, on linkers, in order; H or OH if unused. Where no end group is shown, it is not given here. Side-chain parts run from the residue outwards. [ ]: non-standard residue; d: D form. The star is where a group is joined. Decanoyl(10-(4-HOOC-PhO)) = O=C(O)c1ccc(OCCCCCCCCCC(=O)*)cc1; αMePhe(2-F) = C[C@](N)(Cc1ccccc1F)C(=O)O; γGlu = O=C(O)[C@H](CCC(=O)[*:2])N[*:1]; αMeY = C[C@](N)(Cc1ccc(O)cc1)C(=O)O; αMeL = CC(C)C[C@](C)(N)C(=O)O; Orn = NCCC[C@H](N)C(=O)O; AEEA = NCCOCCOCC(=O)O; Aib = CC(C)(N)C(=O)O
Recorded metric: cAMP Emax (1.0% HSA) (%)

>>> reported_value("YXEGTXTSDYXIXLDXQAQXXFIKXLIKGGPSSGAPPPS (Y-Aib-EGT-αMeF(2F)-TSDY-Aib-I-αMeL-LD-Orn-QAQ-Aib-Orn-FIK((2-[2-(2-Amino-ethoxy)-ethoxy]-acetyl)3-(γ-Glu)-CO-(CH2)12-CO2H)-αMeY-LIK((2-[2-(2-Amino-ethoxy)-ethoxy]-acetyl)3-(γ-Glu)-CO-(CH2)12-CO2H)GGPSSGAPPPS-NH2) [Example 479]")
89.5
>>> reported_value("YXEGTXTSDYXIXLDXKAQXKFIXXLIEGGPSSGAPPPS (Y-Aib-EGT-αMeF(2F)-TSDY-Aib-I-αMeL-LD-Orn-K((2-[2-(2-Amino-ethoxy)-ethoxy]-acetyl)2-(10-(4-carboxyphenoxy)decanoyl))AQ-Aib-K((2-[2-(2-Amino-ethoxy)-ethoxy]-acetyl)2-(10-(4-carboxyphenoxy)decanoyl))FI-(D-Glu)-αMeY-LIEGGPSSGAPPPS-NH2) [Example 393]")
66.7
>>> reported_value("YXEGTXTSDXXIXLDXKAQXEXIXXLIKGGPSSGAPPPS (Y-Aib-EGT-αMeF(2F)-TSD-4Pal-Aib-I-αMeL-LD-Orn-K((2-[2-(2-Amino-ethoxy)-ethoxy]-acetyl)3-(γ-Glu)-CO-(CH2)10-CH3)AQ-Aib-E-αMeF-I-(D-Glu)-αMeY-LIK((2-[2-(2-Amino-ethoxy)-ethoxy]-acetyl)3-(γ-Glu)-CO-(CH2)10-CH3)GGPSSGAPPPS-NH2) [Example 438]")
90.8
>>> reported_value("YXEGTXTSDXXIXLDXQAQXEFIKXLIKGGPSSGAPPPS (Y-Aib-EGT-αMeF(2F)-TSD-4Pal-Aib-I-αMeL-LD-Orn-QAQ-Aib-EFIK(2-[2-(2-Amino-ethoxy)-ethoxy]-acetyl)3-(γ-Glu)-(10-(4-carboxyphenoxy)decanoyl)-αMeY-LIK((2-[2-(2-Amino-ethoxy)-ethoxy]-acetyl)3-(γ-Glu)-(10-(4-carboxyphenoxy)decanoyl)GGPSSGAPPPS-NH2)) [Example 464]")
95.5
>>> reported_value("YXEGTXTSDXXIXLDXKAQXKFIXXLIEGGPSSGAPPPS (Y-Aib-EGT-αMeF(2F)-TSD-4Pal-Aib-I-αMeL-LD-Orn-K((2-[2-(2-Amino-ethoxy)-ethoxy]-acetyl)3-(γ-Glu)-CO-(CH2)10-CH3)AQ-Aib-K((2-[2-(2-Amino-ethoxy)-ethoxy]-acetyl)3-(γ-Glu)-CO-(CH2)10-CH3)FI-(D-Glu)-αMeY-LIEGGPSSGAPPPS-NH2) [Example 422]")
97.5
>>> reported_value("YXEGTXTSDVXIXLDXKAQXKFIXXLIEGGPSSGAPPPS (Y-Aib-EGT-αMeF(2F)-TSDV-Aib-I-αMeL-LD-Orn-K((2-[2-(2-Amino-ethoxy)-ethoxy]-acetyl)-(γ-Glu)-CO-(CH2)12-CO2H)AQ-Aib-K((2-[2-(2-Amino-ethoxy)-ethoxy]-acetyl)-(γ-Glu)-CO-(CH2)12-CO2H)FI-(D-Glu)-αMeY-LIEGGPSSGAPPPS-NH2) [Example 398]")
91.9
>>> reported_value("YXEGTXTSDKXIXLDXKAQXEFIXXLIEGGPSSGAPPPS (Y-Aib-EGT-αMeF(2F)-TSDK((2-[2-(2-Amino-ethoxy)-ethoxy]-acetyl)-(γ-Glu)-CO-(CH2)10-CH3)-Aib-I-αMeL-LD-Orn-K((2-[2-(2-Amino-ethoxy)-ethoxy]-acetyl)-(γ-Glu)-CO-(CH2)10-CH3)AQ-Aib-EFI-(D-Glu)-αMeY-LIEGGPSSGAPPPS-NH2) [Example 425]")
89.9
>>> reported_value("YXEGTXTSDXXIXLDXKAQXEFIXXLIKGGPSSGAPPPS (Y-Aib-EGT-αMeF(2F)-TSD-4Pal-Aib-I-αMeL-LD-Orn-K((2-[2-(2-Amino-ethoxy)-ethoxy]-acetyl)3-(γ-Glu)-CO-(CH2)10-CH3)AQ-Aib-EFI-(D-Glu)-αMeY-LIK((2-[2-(2-Amino-ethoxy)-ethoxy]-acetyl)3-(γ-Glu)-CO-(CH2)10-CH3)GGPSSGAPPPS-NH2) [Example 423]")
89.7
>>> reported_value("YXEGTXTSDXXIXLDXKAQXKXIXXLIEGGPSSGAPPPS (Y-Aib-EGT-αMeF(2F)-TSD-4Pal-Aib-I-αMeL-LD-Orn-K((2-[2-(2-Amino-ethoxy)-ethoxy]-acetyl)3-(γ-Glu)-CO-(CH2)10-CH3)AQ-Aib-K((2-[2-(2-Amino-ethoxy)-ethoxy]-acetyl)3-(γ-Glu)-CO-(CH2)10-CH3)-αMeF-I-(D-Glu)-αMeY-LIEGGPSSGAPPPS-NH2) [Example 437]")
96.5
>>> reported_value("Y[Aib]EGT[αMePhe(2-F)]TSDV[Aib]I[αMeL]LD[Orn]IAQ[Aib]K([AEEA-γGlu-Decanoyl(10-(4-HOOC-PhO))])FI[dE][αMeY]LIK([AEEA-γGlu-Decanoyl(10-(4-HOOC-PhO))])GGPSSGAPPPS-NH2 [Example 382]")
87.2
>>> reported_value("Y[Aib]EGT[αMePhe(2-F)]TSDV[Aib]I[αMeL]LD[Orn]K([AEEA-γGlu-Decanoyl(10-(4-HOOC-PhO))])AQ[Aib]EFI[dE][αMeY]LIK([AEEA-γGlu-Decanoyl(10-(4-HOOC-PhO))])GGPSSGAPPPS-NH2 [Example 379]")
90
>>> reported_value("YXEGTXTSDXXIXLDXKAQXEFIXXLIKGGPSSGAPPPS (Y-Aib-EGT-αMeF(2F)-TSD-4Pal-Aib-I-αMeL-LD-Orn-K((2-[2-(2-Amino-ethoxy)-ethoxy]-acetyl)2-(γ-Glu)-CO-(CH2)12-CO2H)AQ-Aib-EFI-(D-Glu)-αMeY-LIK((2-[2-(2-Amino-ethoxy)-ethoxy]-acetyl)2-(γ-Glu)-CO-(CH2)12-CO2H)GGPSSGAPPPS-NH2) [Example 358]")
86.2
>>> reported_value("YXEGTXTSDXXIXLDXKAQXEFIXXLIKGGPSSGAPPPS (Y-Aib-EGT-αMeF(2F)-TSD-4Pal-Aib-I-αMeL-LD-Orn-K((2-[2-(2-Amino-ethoxy)-ethoxy]-acetyl)-(γ-Glu)-CO-(CH2)10-CH3)AQ-Aib-EFI-(D-Glu)-αMeY-LIK((2-[2-(2-Amino-ethoxy)-ethoxy]-acetyl)-(γ-Glu)-CO-(CH2)10-CH3)GGPSSGAPPPS-NH2) [Example 427]")
92.4
>>> reported_value("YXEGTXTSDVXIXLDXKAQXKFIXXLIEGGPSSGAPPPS (Y-Aib-EGT-αMeF(2F)-TSDV-Aib-I-αMeL-LD-Orn-K((2-[2-(2-Amino-ethoxy)-ethoxy]-acetyl)-(γ-Glu)-(10-(4-carboxyphenoxy)decanoyl))AQ-Aib-K((2-[2-(2-Amino-ethoxy)-ethoxy]-acetyl)-(γ-Glu)-(10-(4-carboxyphenoxy)decanoyl))FI-(D-Glu)-αMeY-LIEGGPSSGAPPPS-NH2) [Example 378]")
81.2
